Examples of compounds with documented isoTOP-ABPP ratio, lysine P52815_K87 follow.
Molecular target: MRPL12 39S ribosomal protein L12, mitochondrial (Homo sapiens, UniProt P52815)
Construct: isoTOP-ABPP experiments performed in cell lysates (in vitro); endogenous in cells; host or cells: soluble proteome of human cancer cell lines (MDA-MB-231, Ramos, Jurkat)
Assay: competitive isoTOP-ABPP
Format: binding
Settings: 50 uM_231_sol_in vitro; possible other lysine B4DLN1_K87, P52815_K91
// return a plain number; no unit text

Observe how each entry below is paired with its result.
O=C(Oc1c(F)c(F)cc(F)c1F)c1cc(C(F)(F)F)cc(C(F)(F)F)c1 [fragment 48]    0.9
O=C(ON1C(=O)CCC1=O)c1cc(C(F)(F)F)cc(C(F)(F)F)c1 [fragment 46]    0.6
O=C(Oc1c(F)c(F)c(C(F)(F)F)c(F)c1F)c1cc(C(F)(F)F)cc(C(F)(F)F)c1 [fragment 47]    1.1

Q. Would you mind telling me what isoTOP-ABPP ratio, lysine P52815_K87 value was observed for O=C(CCc1ccc2c(c1)OCO2)Oc1ccc([N+](=O)[O-])cc1[N+](=O)[O-] [fragment 45] ?
A. 1.8

Q. Would you mind telling me what isoTOP-ABPP ratio, lysine P52815_K87 value was observed for NC(=O)c1cc(C(F)(F)F)cc(C(F)(F)F)c1 [fragment 51, reference compound] ?
A. 0.9

Q. Can you look up the measured isoTOP-ABPP ratio, lysine P52815_K87 of N#Cc1ccc(C(=O)Oc2ccc([N+](=O)[O-])cc2[N+](=O)[O-])cc1 [fragment 44, 2,4-Dinitrophenyl 4-cyanobenzoate] for me?
A. 1.1

###

Biological target: CPOX Coproporphyrinogen-III oxidase, mitochondrial (Homo sapiens)
Construct: isoTOP-ABPP experiments performed in cell lysates (in vitro); endogenous in cells; host or cells: soluble proteome of human cancer cell lines (MDA-MB-231; Ramos and Jurkat also prepared)
Sequence (P36551 111-454): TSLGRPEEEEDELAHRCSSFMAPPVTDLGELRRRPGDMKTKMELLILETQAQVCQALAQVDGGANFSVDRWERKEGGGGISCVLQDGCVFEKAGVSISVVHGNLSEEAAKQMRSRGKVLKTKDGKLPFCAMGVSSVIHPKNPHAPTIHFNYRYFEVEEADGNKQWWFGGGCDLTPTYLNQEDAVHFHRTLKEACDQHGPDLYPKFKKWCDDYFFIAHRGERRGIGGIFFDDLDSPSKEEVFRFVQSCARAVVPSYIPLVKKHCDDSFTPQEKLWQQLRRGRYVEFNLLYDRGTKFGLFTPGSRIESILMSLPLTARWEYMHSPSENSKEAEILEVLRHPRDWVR
Assay: competitive isoTOP-ABPP
Format: binding
Conditions: 50 uM_231_sol_in vitro
The reader will find reported isoTOP-ABPP ratio, lysine P36551_K404 values listed item by item below.
Output spec: single numeric token, no unit.

Worked cases, answers included:
O=C(CCc1ccc2c(c1)OCO2)Oc1ccc([N+](=O)[O-])cc1[N+](=O)[O-] [fragment 45]    1.2
NC(=O)c1cc(C(F)(F)F)cc(C(F)(F)F)c1 [fragment 51, reference compound]    0.9
O=C(ON1C(=O)CCC1=O)c1cc(C(F)(F)F)cc(C(F)(F)F)c1 [fragment 46]    1.0
O=C(Oc1c(F)c(F)c(C(F)(F)F)c(F)c1F)c1cc(C(F)(F)F)cc(C(F)(F)F)c1 [fragment 47]    1.5
N#Cc1ccc(C(=O)Oc2ccc([N+](=O)[O-])cc2[N+](=O)[O-])cc1 [fragment 44, 2,4-Dinitrophenyl 4-cyanobenzoate]    1.0

Q. Suppose we examine the compound O=C(Oc1c(F)c(F)cc(F)c1F)c1cc(C(F)(F)F)cc(C(F)(F)F)c1 [fragment 48] ; what isoTOP-ABPP ratio, lysine P36551_K404 value has been reported?
A. 1.0

###

Target: PLIN3 Perilipin-3 (Homo sapiens, UniProt O60664)
Construct: isoTOP-ABPP experiments performed in cell lysates (in vitro); endogenous in cells; host or cells: MDA-MB-231 soluble lysate
Sequence (O60664 1-434): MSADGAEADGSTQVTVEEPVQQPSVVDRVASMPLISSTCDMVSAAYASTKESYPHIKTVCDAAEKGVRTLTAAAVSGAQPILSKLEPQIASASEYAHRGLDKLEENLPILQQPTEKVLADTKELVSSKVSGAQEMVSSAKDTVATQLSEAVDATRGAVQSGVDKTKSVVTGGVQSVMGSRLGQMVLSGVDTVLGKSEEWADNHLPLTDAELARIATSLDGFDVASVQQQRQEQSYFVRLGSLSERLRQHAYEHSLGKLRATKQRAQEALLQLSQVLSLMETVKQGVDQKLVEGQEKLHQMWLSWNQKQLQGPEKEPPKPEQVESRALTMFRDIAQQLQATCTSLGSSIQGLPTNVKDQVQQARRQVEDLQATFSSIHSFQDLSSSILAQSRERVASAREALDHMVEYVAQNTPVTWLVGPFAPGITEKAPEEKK
Experiment: competitive isoTOP-ABPP
Format: binding
Set-up: key: R = MS1 peak area ratio, DMSO (heavy) / compound-treated (light); capped at 20
Details: 50 uM, 231 sol, in vitro
Record Satisfied whenever isoTOP-ABPP reactivity ratio at lysine O60664_K140 is at 2 or higher; record Not satisfied when lower.

Example entries begin here.
O=C(Oc1c(F)c(F)c(F)c(F)c1F)C1CCN(C(=O)OCc2ccccc2)CC1    Not satisfied
O=C(CN1C(=O)c2ccccc2C1=O)Oc1c(F)c(F)c(F)c(F)c1F    Not satisfied
O=C(CCc1cn(-c2ccccc2)nc1-c1ccccc1)Oc1ccc([N+](=O)[O-])cc1[N+](=O)[O-]    Satisfied

Q. Can O=C(Oc1ccc([N+](=O)[O-])cc1[N+](=O)[O-])C(c1ccccc1)c1ccccc1 [fragment 30, 2,4-Dinitrophenyl 2,2-diphenylacetate] be said to have isoTOP-ABPP reactivity ratio at lysine O60664_K140 at or above 2?
A. Satisfied

Q. Does isoTOP-ABPP reactivity ratio at lysine O60664_K140 meet or surpass 2 for O=C(CCc1coc2cc(F)ccc2c1=O)Oc1c(F)c(F)c(F)c(F)c1F ?
A. Not satisfied

Q. Is it the case that COc1cc(CCC(=O)Oc2ccc([N+](=O)[O-])cc2[N+](=O)[O-])cc(OC)c1OC has isoTOP-ABPP reactivity ratio at lysine O60664_K140 reaching or exceeding 2?
A. Not satisfied

Q. Reported isoTOP-ABPP reactivity ratio at lysine O60664_K140 at or above 2? CCn1cc(C(=O)Oc2c(F)c(F)c(F)c(F)c2F)c(=O)c2ccc(C)nc21
A. Not satisfied

###

As shown below, each of these compounds has a reported R value (DMSO/fragment) for probe 1 labeling value.
Target: PFKM 6-phosphofructokinase, muscle type (Homo sapiens)
Construct: isoTOP-ABPP experiments performed in cell lysates (in vitro); endogenous in cells; host or cells: MDA-MB-231 soluble lysate
Sequence (P08237 whole entry): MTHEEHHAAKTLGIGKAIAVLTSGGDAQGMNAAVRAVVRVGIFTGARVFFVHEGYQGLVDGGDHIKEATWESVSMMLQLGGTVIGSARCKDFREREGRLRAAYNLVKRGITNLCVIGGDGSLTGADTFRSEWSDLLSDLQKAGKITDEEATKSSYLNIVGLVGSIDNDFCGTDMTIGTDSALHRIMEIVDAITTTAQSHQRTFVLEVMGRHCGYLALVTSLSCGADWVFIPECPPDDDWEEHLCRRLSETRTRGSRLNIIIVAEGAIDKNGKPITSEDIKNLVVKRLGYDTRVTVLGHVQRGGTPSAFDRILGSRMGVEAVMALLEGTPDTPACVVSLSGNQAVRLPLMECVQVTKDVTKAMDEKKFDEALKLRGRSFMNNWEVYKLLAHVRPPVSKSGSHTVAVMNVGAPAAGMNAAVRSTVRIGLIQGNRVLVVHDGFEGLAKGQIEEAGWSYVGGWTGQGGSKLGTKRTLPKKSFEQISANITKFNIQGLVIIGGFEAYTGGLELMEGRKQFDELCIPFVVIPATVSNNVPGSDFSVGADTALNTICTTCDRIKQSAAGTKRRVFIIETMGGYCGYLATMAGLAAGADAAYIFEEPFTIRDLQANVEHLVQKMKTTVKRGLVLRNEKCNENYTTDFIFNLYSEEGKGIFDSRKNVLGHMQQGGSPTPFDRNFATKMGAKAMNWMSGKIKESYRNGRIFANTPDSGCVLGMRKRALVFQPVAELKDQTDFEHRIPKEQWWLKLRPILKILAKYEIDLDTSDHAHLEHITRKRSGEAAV
Experiment: competitive isoTOP-ABPP
Assay type: binding
Conditions: P08237_K678; 50 uM, 231 sol, in vitro

COc1cc(CCC(=O)Oc2c(F)c(F)c(F)c(F)c2F)cc(OC)c1OC    1.0
O=C(CCc1cn(-c2ccccc2)nc1-c1ccccc1)Oc1c(F)c(F)c(F)c(F)c1F    1.0
O=C(Oc1c(F)c(F)c(F)c(F)c1F)C(c1ccccc1)c1ccccc1 [fragment 20, Pentafluorophenyl 2,2-diphenylacetate]    1.4
Cn1cc(CC(=O)Oc2c(F)c(F)c(F)c(F)c2F)c2ccccc21    1.1

Q. Reported R value (DMSO/fragment) for probe 1 labeling, compound O=C(Oc1c(F)c(F)c(F)c(F)c1F)c1cc(C(F)(F)F)cc(C(F)(F)F)c1 : ____
A. 0.9

###

Overview of reported isoTOP-ABPP ratio (R) at liganded lysine P23381_K256 across a group of compounds:
Target: WARS Tryptophan--tRNA ligase, cytoplasmic (Homo sapiens)
Construct: isoTOP-ABPP experiments performed in cell lysates (in vitro); endogenous in cells; host or cells: soluble proteome of human cancer cell lines (MDA-MB-231; Ramos and Jurkat also prepared)
Sequence (P23381 1-471): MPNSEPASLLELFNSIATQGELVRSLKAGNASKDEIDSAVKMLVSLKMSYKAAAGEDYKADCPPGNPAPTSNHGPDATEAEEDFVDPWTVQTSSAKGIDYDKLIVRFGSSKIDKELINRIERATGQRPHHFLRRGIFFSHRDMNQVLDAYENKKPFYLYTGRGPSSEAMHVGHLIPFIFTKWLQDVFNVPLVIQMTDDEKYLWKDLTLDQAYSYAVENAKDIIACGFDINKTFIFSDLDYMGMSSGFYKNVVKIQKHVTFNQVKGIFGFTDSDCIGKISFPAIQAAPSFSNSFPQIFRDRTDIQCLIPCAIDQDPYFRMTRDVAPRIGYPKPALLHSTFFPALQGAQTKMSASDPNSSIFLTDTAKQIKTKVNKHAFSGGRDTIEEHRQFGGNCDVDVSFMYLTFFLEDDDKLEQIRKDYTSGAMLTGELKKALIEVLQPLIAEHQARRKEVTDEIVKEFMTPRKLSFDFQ
Experiment: competitive isoTOP-ABPP
Assay type: binding
Settings: 50 uM, in vitro, sol, 231
Answer using only a numeral; do not append any unit.

Solved cases (3 shown):
CC(=O)Oc1ccc([N+](=O)[O-])cc1[N+](=O)[O-] [fragment 43, 2,4-Dinitrophenyl acetate]    1.0
O=C(Oc1ccc([N+](=O)[O-])cc1[N+](=O)[O-])c1ccc(Oc2ccccc2)cc1 [fragment 39, 2,4-Dinitrophenyl 4-phenoxybenzoate]    0.9
O=C(Oc1ccc([N+](=O)[O-])cc1[N+](=O)[O-])c1ccc(-c2ccccc2)cc1    0.4

Q. Reported isoTOP-ABPP ratio (R) at liganded lysine P23381_K256 for O=C(Oc1ccc([N+](=O)[O-])cc1[N+](=O)[O-])c1ccccc1Nc1cccc(C(F)(F)F)c1 : what is it?
A. 1.1

Q. What does the data say about its isoTOP-ABPP ratio (R) at liganded lysine P23381_K256? Entry: O=C(CCc1coc2cc(F)ccc2c1=O)Oc1ccc([N+](=O)[O-])cc1[N+](=O)[O-]
A. 1.0

Q. # isoTOP-ABPP ratio (R) at liganded lysine P23381_K256 lookup, item O=C(Oc1ccc([N+](=O)[O-])cc1[N+](=O)[O-])c1ccc2ccccc2n1
A. 1.1

Q. Report isoTOP-ABPP ratio (R) at liganded lysine P23381_K256 for CC(C)(C)OC(=O)NCCCC(=O)Oc1ccc([N+](=O)[O-])cc1[N+](=O)[O-] please.
A. 0.9
